biological target: Cannabinoid receptor 2 (Homo sapiens); assay: Inverse agonist activity at human CB2 receptor expressed in Sf9 cells coexpressing Galpha i2 assessed as Galpha GTPase activity using [gamma-33P]GTP by scintillation counting in presence of CP55940
In plain terms, low EC50, meaning strictly below 7 µM, gives Yes, and everything else gives No.

Task: Dear colleague, could you confirm whether EC50 of CCOc1ccc(Cc2nc3cc(C(=O)N(CC)CC)ccc3n2CCCCCCCCCCN(C)C)cc1 falls below 7 µM? Thanks.
Result: No

Task: Now consider COc1ccc(C(=O)c2c(C)n(CCN3CCOCC3)c3cc(I)ccc23)cc1 and answer again.
Result: Yes

Task: Now consider CCOc1ccc(Cc2nc3cc(C(=O)NCCCCCCCCCCN(C)CCCCCCCCCCNC(=O)c4ccc5c(c4)nc(Cc4ccc(OCC)cc4)n5CCC(C)C)ccc3n2CCC(C)C)cc1 and answer again.
Result: No

Task: Now consider CCOc1ccc(Cc2nc3cc(C(=O)NCCCCCCCCCCN(C)C)ccc3n2CCC(C)C)cc1 and answer again.
Result: No

Task: Now consider CCOc1ccc(Cc2nc3cc(C(=O)N(CC)CC)ccc3n2CCCCCCCCCCN(C)CCCCCCCCCCn2c(Cc3ccc(OCC)cc3)nc3cc(C(=O)N(CC)CC)ccc32)cc1 and answer again.
Result: Yes

====

biological target: Cannabinoid receptor 2 (Homo sapiens); experiment: Antagonist activity at human CB2 receptor expressed in Sf9 cells coexpressing Galpha i2 assessed as Galpha GTPase activity using [gamma-33P]GTP at 100 uM by scintillation counting in presence of 30 nM CP55940; assay type: functional
measure: Emax (%)
Only the number, expressed in %, is required.

item_smiles=CCOc1ccc(Cc2nc3cc(C(=O)NCCCN(C)C)ccc3n2CCC(C)C)cc1 unit_string=% measured_result=65
item_smiles=CCOc1ccc(Cc2nc3cc(C(=O)OC)ccc3n2CCC(C)C)cc1 unit_string=% measured_result=121
item_smiles=CCOc1ccc(Cc2nc3cc(C(=O)NCCCCCCCCCCN(C)CCCCCCCCCCNC(=O)c4ccc5c(c4)nc(Cc4ccc(OCC)cc4)n5CCC(C)C)ccc3n2CCC(C)C)cc1 unit_string=% measured_result=28
item_smiles=CCOc1ccc(Cc2nc3cc(C(=O)NCCCN(C)CCCNC(=O)c4ccc5c(c4)nc(Cc4ccc(OCC)cc4)n5CCC(C)C)ccc3n2CCC(C)C)cc1 unit_string=% measured_result=-32
item_smiles=CCOc1ccc(Cc2nc3cc(C(=O)N(CC)CC)ccc3n2CCCN(C)C)cc1 unit_string=% measured_result=69

Task: Which Emax value belongs to CCOc1ccc(Cc2nc3cc(C(=O)N(CC)CC)ccc3n2CCCCN(C)CCCCn2c(Cc3ccc(OCC)cc3)nc3cc(C(=O)N(CC)CC)ccc32)cc1 ?
Result: 14

Task: Now consider CCOc1ccc(Cc2nc3cc(C(=O)N(CC)CC)ccc3n2CCCCCCCCCCN(C)CCCCCCCCCCn2c(Cc3ccc(OCC)cc3)nc3cc(C(=O)N(CC)CC)ccc32)cc1 and answer again.
Result: -33

====

Entries and their Emax
target: Cannabinoid receptor 1 (Homo sapiens, UniProt P21554); assay: Antagonist activity at human CB1 receptor expressed in Sf9 cells coexpressing Galpha i2 assessed as Galpha GTPase activity using [gamma-33P]GTP at 100 uM by scintillation counting in presence of 30 nM CP55940; assay type: functional
Sequence (P21554 whole entry): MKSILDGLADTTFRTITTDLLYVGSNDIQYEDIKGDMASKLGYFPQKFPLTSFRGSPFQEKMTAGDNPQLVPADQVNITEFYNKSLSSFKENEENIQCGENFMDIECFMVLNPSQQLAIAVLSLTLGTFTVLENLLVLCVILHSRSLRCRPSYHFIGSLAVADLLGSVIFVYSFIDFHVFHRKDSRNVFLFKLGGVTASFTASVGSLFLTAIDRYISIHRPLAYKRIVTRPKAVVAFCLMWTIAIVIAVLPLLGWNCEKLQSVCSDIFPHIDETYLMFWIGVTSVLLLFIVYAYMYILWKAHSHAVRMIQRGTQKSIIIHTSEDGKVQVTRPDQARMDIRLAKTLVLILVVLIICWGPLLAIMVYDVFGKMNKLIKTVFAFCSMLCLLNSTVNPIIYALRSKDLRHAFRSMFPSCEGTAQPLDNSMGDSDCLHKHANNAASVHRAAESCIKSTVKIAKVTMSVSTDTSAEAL
Only the number, expressed in %, is required.

item_smiles=CCOc1ccc(Cc2nc3cc(C(=O)NCCCN(C)C)ccc3n2CCC(C)C)cc1 measure=Emax measured_result=71

Task: Which Emax value belongs to CCOc1ccc(Cc2nc3cc(C(=O)OC)ccc3n2CCC(C)C)cc1 ?
Result: 98

Task: Now consider CCOc1ccc(Cc2nc3cc(C(=O)N(CC)CC)ccc3n2CCCN(C)C)cc1 and answer again.
Result: 95

Task: Now consider Cc1c(C(=O)NN2CCCCC2)nn(-c2ccc(Cl)cc2Cl)c1-c1ccc(I)cc1 and answer again.
Result: -8

====

target: Cannabinoid receptor 2 (Homo sapiens, UniProt P34972); assay: Agonist activity at human CB2 receptor expressed in Sf9 cells coexpressing Galpha i2 assessed as Galpha GTPase activity using [gamma-33P]GTP by scintillation counting
Sequence (P34972 whole entry): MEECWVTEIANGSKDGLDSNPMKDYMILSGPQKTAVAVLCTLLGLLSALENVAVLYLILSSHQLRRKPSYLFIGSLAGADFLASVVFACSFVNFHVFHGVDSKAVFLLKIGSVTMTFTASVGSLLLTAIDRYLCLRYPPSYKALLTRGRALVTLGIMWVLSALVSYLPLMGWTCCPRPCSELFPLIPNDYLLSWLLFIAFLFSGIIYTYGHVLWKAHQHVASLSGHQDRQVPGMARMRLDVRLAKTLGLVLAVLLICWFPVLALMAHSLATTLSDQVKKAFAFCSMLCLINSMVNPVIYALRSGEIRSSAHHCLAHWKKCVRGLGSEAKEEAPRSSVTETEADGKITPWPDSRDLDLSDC
Entries and their pEC50
To interpret pEC50, take it as minus log10 of a concentration measured in moles per litre.

item_smiles=CCOc1ccc(Cc2nc3cc(C(=O)OC)ccc3n2CCC(C)C)cc1 measure=pEC50 measured_result=6.53

Task: Which pEC50 value belongs to CCCCn1c(Cc2ccc(OCC)cc2)nc2cc(C(=O)N(CC)CC)ccc21 ?
Result: 6.76

====

target: Cannabinoid receptor 1 (Homo sapiens, UniProt P21554); assay: Agonist activity at human CB1 receptor expressed in Sf9 cells coexpressing Galpha i2 assessed as Galpha GTPase activity using [gamma-33P]GTP by scintillation counting
measure: pEC50
To interpret pEC50, take it as minus log10 of a concentration measured in moles per litre.

item_smiles=CCOc1ccc(Cc2nc3cc(C(=O)N(CC)CC)ccc3n2CCC(C)C)cc1 measured_result=5.49

Task: GET /values?readout=pEC50&system=Cannabinoid receptor 1 (Homo sapiens, UniProt P21554)&item= CCCCn1c(Cc2ccc(OCC)cc2)nc2cc(C(=O)N(CC)CC)ccc21
Result: 5.87

====

biological target: Cannabinoid receptor 2 (Homo sapiens, UniProt P34972); experiment: Inverse agonist activity at human CB2 receptor expressed in Sf9 cells coexpressing Galpha i2 assessed as Galpha GTPase activity using [gamma-33P]GTP by scintillation counting in presence of CP55940
measure: EC50 (µM)
Only the number, expressed in µM, is required.

// solved cases for EC50 follow
item_smiles=CCOc1ccc(Cc2nc3cc(C(=O)N(CC)CC)ccc3n2CCCCN(C)CCCCn2c(Cc3ccc(OCC)cc3)nc3cc(C(=O)N(CC)CC)ccc32)cc1 measured_result=57.5
item_smiles=CCOc1ccc(Cc2nc3cc(C(=O)NCCCN(C)CCCNC(=O)c4ccc5c(c4)nc(Cc4ccc(OCC)cc4)n5CCC(C)C)ccc3n2CCC(C)C)cc1 measured_result=2.88

Now for another entry.
Task: Which EC50 value belongs to CCOc1ccc(Cc2nc3cc(C(=O)N(CC)CC)ccc3n2CCCN(C)CCCn2c(Cc3ccc(OCC)cc3)nc3cc(C(=O)N(CC)CC)ccc32)cc1 ?
Result: 12

====

Entries and their Emax
target: UniProt:P21554; assay: Agonist activity at human CB1 receptor expressed in Sf9 cells coexpressing Galpha i2 assessed as Galpha GTPase activity using [gamma-33P]GTP at 100 uM by scintillation counting
Only the number, expressed in %, is required.

Task: Which Emax value belongs to CCOc1ccc(Cc2nc3cc(C(=O)NCCCN(C)CCCNC(=O)c4ccc5c(c4)nc(Cc4ccc(OCC)cc4)n5CCC(C)C)ccc3n2CCC(C)C)cc1 ?
Result: -83

Task: Now consider Cc1c(C(=O)NN2CCCCC2)nn(-c2ccc(Cl)cc2Cl)c1-c1ccc(I)cc1 and answer again.
Result: -84

Task: Now consider CCOc1ccc(Cc2nc3cc(C(=O)N(CC)CC)ccc3n2CCC(C)C)cc1 and answer again.
Result: 48

====

Entries and their Emax
target: Cannabinoid receptor 2 (Homo sapiens); test: Antagonist activity at human CB2 receptor expressed in Sf9 cells coexpressing Galpha i2 assessed as Galpha GTPase activity using [gamma-33P]GTP at 100 uM by scintillation counting in presence of 30 nM CP55940; format: functional
Only the number, expressed in %, is required.

// solved cases for Emax follow
molecule="Cc1ccc(Cn2nc(C(=O)NC3C4(C)CCC(C4)C3(C)C)cc2-c2ccc(Cl)c(C)c2)cc1 (centres undefined)" measured_result=9
molecule=COc1ccc(C(=O)c2c(C)n(CCN3CCOCC3)c3cc(I)ccc23)cc1 measured_result=15
molecule=CCOc1ccc(Cc2nc3cc(C(=O)N(CC)CC)ccc3n2CCCN(C)CCCn2c(Cc3ccc(OCC)cc3)nc3cc(C(=O)N(CC)CC)ccc32)cc1 measured_result=5

Task: Which Emax value belongs to CCOc1ccc(Cc2nc3cc(C(=O)N(CC)CC)ccc3n2CCCCCCCCCCN(C)C)cc1 ?
Result: 60

====

target: Cannabinoid receptor 2 (Homo sapiens, UniProt P34972); experiment: Antagonist activity at human CB2 receptor expressed in Sf9 cells coexpressing Galpha i2 assessed as Galpha GTPase activity using [gamma-33P]GTP by scintillation counting in presence of 30 nM CP55940; format: functional
measure: pEC50
To interpret pEC50, take it as minus log10 of a concentration measured in moles per litre.

Task: Which pEC50 value belongs to CCOc1ccc(Cc2nc3cc(C(=O)N(CC)CC)ccc3n2CCCN(C)C)cc1 ?
Result: 4.90

====

molecular target: Cannabinoid receptor 2 (Homo sapiens, UniProt P34972); test: Agonist activity at human CB2 receptor expressed in Sf9 cells coexpressing Galpha i2 assessed as Galpha GTPase activity using [gamma-33P]GTP at 100 uM by scintillation counting
Entries and their Emax
Only the number, expressed in %, is required.

molecule=CCOc1ccc(Cc2nc3cc(C(=O)N(CC)CC)ccc3n2CCCCCCCCCCN(C)CCCCCCCCCCn2c(Cc3ccc(OCC)cc3)nc3cc(C(=O)N(CC)CC)ccc32)cc1 measured_result=-11

Task: Which Emax value belongs to CCOc1ccc(Cc2nc3cc(C(=O)NCCCN(C)CCCNC(=O)c4ccc5c(c4)nc(Cc4ccc(OCC)cc4)n5CCC(C)C)ccc3n2CCC(C)C)cc1 ?
Result: -11

Task: Now consider Cc1ccc(Cn2nc(C(=O)NC3C4(C)CCC(C4)C3(C)C)cc2-c2ccc(Cl)c(C)c2)cc1 (centres undefined) and answer again.
Result: -3
